The entries below come with measured INHIBITION values attached.
Test system: Plasmodium berghei
Assay: Screen against P. berghei liver stage (PbLuc), transformed with Luciferase, at 10uM
Type: functional, HepG2
Conditions: tested at 10 uM
Hit rate of the full screen: of about 69,000 compounds, about 8,600 (12%) showed an effect of 50% or more. This excerpt belongs to a sample that is enriched for strong results.
Only the number, expressed in %, is required.

Recorded INHIBITION, per entry:
{"Compound": "CC(C)(CNC1CCCN(Cc2ccccn2)C1)CN1CCOCC1 (configuration not stated)", "Target of assay": "Plasmodium berghei", "Unit info": "%", "INHIBITION": 33}
{"Compound": "O=C1Nc2ccccc2CNC12CCN(CC1CCCC1)CC2", "Target of assay": "Plasmodium berghei", "Unit info": "%", "INHIBITION": 30}
{"Compound": "O=C(c1ccncc1)N1CCc2ncnc(C3CCOC3)c2CC1 (configuration not stated)", "Target of assay": "Plasmodium berghei", "Unit info": "%", "INHIBITION": 49.7}
{"Compound": "O=C(c1ccnnc1)N1CCc2ncnc(C3CCOC3)c2CC1 (configuration not stated)", "Target of assay": "Plasmodium berghei", "Unit info": "%", "INHIBITION": 38.1}
{"Compound": "CC(=O)Nc1nc(CN2CCOC(Cn3cccn3)C2)cs1 (configuration not stated)", "Target of assay": "Plasmodium berghei", "Unit info": "%", "INHIBITION": 31.3}

Query (compound): CCOCCCNC(=O)C(NC(=O)Cc1cccs1)c1ccccc1 (configuration not stated) ; field requested: INHIBITION
34.2

Query (compound): CN(C)CCNC(=O)c1ccn(-c2ccc3ccccn23)n1 ; field requested: INHIBITION
13.6

Query (compound): CCOCCCNC(=O)C(NC(=O)Cc1cccs1)c1ccc(C)cc1 (configuration not stated) ; field requested: INHIBITION
54

Query (compound): CC(NC(=O)c1ccnc(C2CC2)n1)C1(N2CCOCC2)CCCC1 (configuration not stated) ; field requested: INHIBITION
-20.3

Query (compound): O=C(c1cccs1)N1CCc2ncnc(C3CCOC3)c2CC1 (configuration not stated) ; field requested: INHIBITION
53.2

Query (compound): Cc1nc(C)n(CC2CCCN(CCOc3cccc(F)c3)C2)n1 (configuration not stated) ; field requested: INHIBITION
48.4

Query (compound): CC(C)c1nc(C2CCCN2C(=O)c2cc(Cl)c[nH]2)no1 (configuration not stated) ; field requested: INHIBITION
6.09

====

The entries below come with measured INHIBITION values attached.
Tested on: Plasmodium berghei
Experiment: Screen against P. berghei liver stage (PbLuc), transformed with Luciferase, at 10uM
Assay type: functional, HepG2
Conditions: tested at 10 uM
Hit rate of the full screen: of about 69,000 compounds, about 8,600 (12%) showed an effect of 50% or more. Many of the other results were omitted from the sample, so strong results are more common in it than they were.
Only the number, expressed in %, is required.

Query (molecule): CCN1CCCC(c2cc(Nc3cnccn3)nc(C)n2)C1 (stereo unspecified) ; field requested: INHIBITION
-2.11

====

Tested on: Plasmodium berghei
Assay: Screen against P. berghei liver stage (PbLuc), transformed with Luciferase, at 10uM
Type: functional, HepG2
Settings: tested at 10 uM
Among all 69,000 compounds or so, about 8,600 (12%) showed an effect of 50% or more. Shown is part of a subset that was picked to be rich in strong results.
Property label: INHIBITION (%)
Only the number, expressed in %, is required.

Recorded INHIBITION, per entry:
{"Molecule": "O=C(c1cnc(-c2cnccn2)s1)N1CCCC1Cn1cccn1 (configuration not stated)", "Unit info": "%", "INHIBITION": -21.5}
{"Molecule": "CN(C)Cc1ccc(N2CCN(CCOCC(F)(F)F)CC2)nc1", "Unit info": "%", "INHIBITION": 33.4}
{"Molecule": "Cc1ccccc1OCCN1CCn2c(C)nnc2C1", "Unit info": "%", "INHIBITION": 27.6}

Query (molecule): Cc1noc(C)c1CN1CCN(Cc2ccncc2)c2ncccc2C1 ; field requested: INHIBITION
29

Query (molecule): CCn1nc2c(cc1=O)CN(CCOc1ccccc1C#N)CC2 ; field requested: INHIBITION
2.4

Query (molecule): CO[C@@H]1CCC[C@@H](NC(=O)C(C)(C)c2cccc(F)c2)[C@H]1O ; field requested: INHIBITION
10.855

Query (molecule): COc1ccccc1C1(O)CCCN(C(=O)c2csc(C(C)=O)c2)C1 (configuration not stated) ; field requested: INHIBITION
36

Query (molecule): Cn1cc(CN2CCOC(Cc3cccc(F)c3)C2)cn1 (configuration not stated) ; field requested: INHIBITION
36.8

Query (molecule): Cc1nnc(SCC(=O)N2C[C@@H]3CC[C@H]2CN(c2ncccn2)C3)[nH]1 ; field requested: INHIBITION
19.4

Query (molecule): N#Cc1ccccc1OCCN1CCn2c(nnc2C2CC2)C1 ; field requested: INHIBITION
39.5

Query (molecule): CCn1cc(CNCC(c2ccc(Cl)cc2)n2cccn2)cn1 (configuration not stated) ; field requested: INHIBITION
3.58

Query (molecule): CCn1nc2c(cc1=O)CN(Cc1nc(N)c3ccccc3n1)CC2 ; field requested: INHIBITION
15.8
